Target: H+/K+-ATPase (Sus scrofa, UniProt P19156)
Construct: reaction buffer solution (60 mmol/l Tris-HCl buffer solution, pH 7.4) containing hog gastric vesicle
Sequence (P19156 2-1034 limits assumed): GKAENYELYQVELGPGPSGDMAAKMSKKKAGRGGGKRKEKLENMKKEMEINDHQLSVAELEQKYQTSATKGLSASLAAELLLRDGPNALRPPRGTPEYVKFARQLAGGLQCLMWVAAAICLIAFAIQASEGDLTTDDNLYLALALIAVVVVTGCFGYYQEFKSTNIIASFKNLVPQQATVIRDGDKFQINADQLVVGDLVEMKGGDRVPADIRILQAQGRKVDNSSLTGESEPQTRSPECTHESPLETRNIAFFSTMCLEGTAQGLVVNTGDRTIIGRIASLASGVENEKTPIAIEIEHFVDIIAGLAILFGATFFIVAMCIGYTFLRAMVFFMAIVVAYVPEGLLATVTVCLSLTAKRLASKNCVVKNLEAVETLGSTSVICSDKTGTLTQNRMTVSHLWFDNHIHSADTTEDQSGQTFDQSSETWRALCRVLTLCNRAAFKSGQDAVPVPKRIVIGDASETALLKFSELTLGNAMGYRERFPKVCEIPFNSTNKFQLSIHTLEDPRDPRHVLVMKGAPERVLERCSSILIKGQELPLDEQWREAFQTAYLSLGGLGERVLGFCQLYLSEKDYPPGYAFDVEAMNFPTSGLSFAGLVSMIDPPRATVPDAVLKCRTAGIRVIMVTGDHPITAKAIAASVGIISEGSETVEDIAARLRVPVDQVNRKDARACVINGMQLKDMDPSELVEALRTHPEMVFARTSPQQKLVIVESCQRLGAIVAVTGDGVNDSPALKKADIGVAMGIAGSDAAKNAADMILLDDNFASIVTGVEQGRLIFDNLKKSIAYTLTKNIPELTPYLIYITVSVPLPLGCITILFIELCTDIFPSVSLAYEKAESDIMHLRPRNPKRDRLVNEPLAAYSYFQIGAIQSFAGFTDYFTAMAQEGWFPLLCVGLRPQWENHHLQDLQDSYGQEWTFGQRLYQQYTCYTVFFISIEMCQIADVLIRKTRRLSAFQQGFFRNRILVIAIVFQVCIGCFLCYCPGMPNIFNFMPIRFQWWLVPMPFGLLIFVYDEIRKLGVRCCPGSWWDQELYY
Sequence (P18434 whole entry partner): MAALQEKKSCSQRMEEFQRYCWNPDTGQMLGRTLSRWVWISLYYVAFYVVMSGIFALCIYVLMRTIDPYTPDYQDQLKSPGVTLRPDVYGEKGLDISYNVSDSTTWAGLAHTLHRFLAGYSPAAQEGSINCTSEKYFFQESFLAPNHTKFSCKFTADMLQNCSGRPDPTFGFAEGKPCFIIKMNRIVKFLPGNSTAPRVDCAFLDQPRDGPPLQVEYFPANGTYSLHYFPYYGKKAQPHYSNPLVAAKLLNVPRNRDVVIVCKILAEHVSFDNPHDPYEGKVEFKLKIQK
Experiment: Inhibition of proton pump (H+/K+-ATPase) activity in hog gastric vesicles
Details: K+ specific H+/K+-ATPase activity, pH 7.4, 37° C. for 40 minutes, malachite green
pIC50: −log10 of the molar value.
Endpoint Label: pIC50

Some compounds with recorded pIC50:
compound="CNC1CCc2c1cn(S(=O)(=O)c1ccccc1Cl)c2-c1ccc(C)cc1F (centres unmarked)" reported_value=6.00
compound="CNC1CCc2c1cn(S(=O)(=O)c1cccc(Cl)c1)c2-c1ccccc1F (centres unmarked)" reported_value=6.47
compound="CNC1CCc2c1cn(S(=O)(=O)c1cccc(Cl)c1)c2-c1ccc(F)c(F)c1 (centres unmarked)" reported_value=6.32
compound="CNC1CCc2c1cn(S(=O)(=O)c1ccccc1OC)c2-c1ccccc1F (centres unmarked)" reported_value=5.49
compound="CNC1CCc2c1cn(S(=O)(=O)c1ccc(C)nc1Cl)c2-c1ccccc1F (centres unmarked)" reported_value=5.17
compound="CNC1CCc2c1cn(S(=O)(=O)c1ccc(F)cc1F)c2-c1ccccc1F (centres unmarked)" reported_value=6.03

a. Cc1oc(=O)oc1CN(C)C1CCc2c1cn(S(=O)(=O)c1cccc(Cl)c1)c2-c1ccccc1F (centres unmarked)
b. CN(C)C1CCCc2c1cn(S(=O)(=O)c1cccc(OC(F)(F)F)c1)c2-c1ccccc1F (centres unmarked)
Qu. Parameter metric = pIC50. Return the lower-valued option from a and b . // return label of chosen record
Ans. b

###

Biological target: H+/K+-ATPase (Sus scrofa, UniProt P19156)
Construct: reaction buffer solution (60 mmol/l Tris-HCl buffer solution, pH 7.4) containing hog gastric vesicle
Experiment: Inhibition of proton pump (H+/K+-ATPase) activity in hog gastric vesicles
Conditions: K+ specific H+/K+-ATPase activity, pH 7.4, 37° C. for 40 minutes, malachite green
Endpoint Label: IC50 (µM)

Some compounds with recorded IC50:
compound="CNC1CCc2c1cn(S(=O)(=O)c1cccc(Cl)c1)c2-c1ccccc1 (centres unmarked) [Example 3]" reported_value=0.45
compound="CNC1CCc2c1cn(S(=O)(=O)c1cccnc1)c2-c1ccccc1F (centres unmarked) [Example 88]" reported_value=0.51
compound="CNC1CCc2c1cn(S(=O)(=O)c1cccc(Cl)c1)c2-c1ccc(C#N)cc1 (centres unmarked) [Example 13]" reported_value=1.8
compound="CNC1CCc2c1cn(S(=O)(=O)c1cccc(Cl)c1)c2-c1ccc(C(F)(F)F)cc1 (centres unmarked) [Example 16]" reported_value=0.97
compound="CNC1CCc2c1cn(S(=O)(=O)c1cccc(OC)c1)c2-c1cc(Cl)ccc1Cl (centres unmarked) [Example 55]" reported_value=0.59
compound="CNC1CCCc2c1cn(S(=O)(=O)c1cccc(C(F)(F)F)c1)c2-c1ccccc1F (centres unmarked) [Example 124]" reported_value=4.18

P. CNC1CCCc2c1cn(S(=O)(=O)c1cccc(Cl)c1)c2-c1ccc(-c2ccccc2)cc1 (centres unmarked) [Example 127]
Q. CNC1CCc2c1cn(S(=O)(=O)c1cccc(Cl)c1)c2-c1cc(Cl)cc(Cl)c1 (centres unmarked) [Example 25]
Qu. Hi, I'm comparing P with Q and wondering which one has the bigger number for IC50. Any idea? // return label of chosen record
Ans. P

###

Biological target: H+/K+-ATPase (Sus scrofa, UniProt P19156)
Construct: reaction buffer solution (60 mmol/l Tris-HCl buffer solution, pH 7.4) containing hog gastric vesicle
Assay: Inhibition of proton pump (H+/K+-ATPase) activity in hog gastric vesicles
Details: K+ specific H+/K+-ATPase activity, pH 7.4, 37° C. for 40 minutes, malachite green
pIC50: −log10 of the molar value.
Endpoint Label: pIC50

Some compounds with recorded pIC50:
compound="CNC1CCc2c1cn(S(=O)(=O)c1cccc(Cl)c1)c2-c1cccc(Cl)n1 (centres unmarked)" target_under_test="H+/K+-ATPase (Sus scrofa, UniProt P19156)" reported_value=5.60
compound="CNC1CCc2c1cn(S(=O)(=O)c1cccc(Cl)c1)c2-c1ccc(C(=O)OC)cc1 (centres unmarked)" target_under_test="H+/K+-ATPase (Sus scrofa, UniProt P19156)" reported_value=5.54
compound="CNC1CCc2c1cn(S(=O)(=O)c1ccc(Cl)c(Cl)c1Cl)c2-c1ccccc1F (centres unmarked)" target_under_test="H+/K+-ATPase (Sus scrofa, UniProt P19156)" reported_value=6.21
compound="CNC1CCc2c1cn(S(=O)(=O)c1cccc(C)c1)c2-c1cc(Cl)ccc1Cl (centres unmarked)" target_under_test="H+/K+-ATPase (Sus scrofa, UniProt P19156)" reported_value=6.11
compound="CNC1CCc2c1cn(S(=O)(=O)c1cccc(Cl)c1C)c2-c1ccccc1F (centres unmarked)" target_under_test="H+/K+-ATPase (Sus scrofa, UniProt P19156)" reported_value=6.21

P. CNC1CCc2c1cn(S(=O)(=O)c1cccc(Cl)c1)c2-c1cnn(C)c1 (centres unmarked)
Q. CNC1CCc2c1cn(S(=O)(=O)c1c(Cl)cccc1Cl)c2-c1ccccc1F (centres unmarked)
R. CNC1CCc2c1cn(S(=O)(=O)c1cccc(Cl)c1)c2-c1cc(Cl)ccc1Cl (centres unmarked)
Qu. Arrange the 3 entries by pIC50 so the values rise. Give your ranking as a list of the labels in the requested order.
Ans. Q, P, R
(Q: 5.67, P: 5.98, R: 6.39)

###

Target: H+/K+-ATPase (Sus scrofa, UniProt P19156)
Construct: reaction buffer solution (60 mmol/l Tris-HCl buffer solution, pH 7.4) containing hog gastric vesicle
Experiment: Inhibition of proton pump (H+/K+-ATPase) activity in hog gastric vesicles
Conditions: K+ specific H+/K+-ATPase activity, pH 7.4, 37° C. for 40 minutes, malachite green
Experimental: 1) Preparation of Gastric Vesicles Gastric vesicles were prepared from hog stomach by centrifugation (Edd C. Rabon et al., Preparation of Gastric H^+,K^+-ATPase, Methods in enzymology, vol. 157 Academic Press Inc., (1988), pp. 649-654). The protein contents of the prepared gastric vesicles were quantified with a Bicinchoninic Acid (BCA) kit. […] The effect of inhibiting proton pump activity by the compound of the present invention was measured in a 96-well plate. […]
Endpoint Label: IC50 (nM)

Some compounds with recorded IC50:
compound="CNC1CCc2c1cn(S(=O)(=O)c1cc(Cl)c(Cl)cc1Cl)c2-c1ccccc1 (stereo not shown)" units_label=nM reported_value=1140
compound="CC(C)NC1CCc2c1cn(S(=O)(=O)c1cccnc1)c2-c1ccccc1F (stereo not shown)" units_label=nM reported_value=50000
compound="CNC1CCCc2c1cn(S(=O)(=O)c1cccnc1)c2-c1ccc(-c2ccccc2)cc1 (stereo not shown)" units_label=nM reported_value=19700

I. CNC1CCc2c1cn(S(=O)(=O)c1cc(Cl)cc(Cl)c1)c2-c1cc(Cl)ccc1Cl (stereo not shown)
II. CNC1CCc2c1cn(S(=O)(=O)c1cccc(Cl)c1)c2-c1ccc2occc2c1 (stereo not shown)
III. CNC1CCc2c1cn(S(=O)(=O)c1cccc(Cl)c1)c2-c1ccc(N2CCOCC2)nc1 (stereo not shown)
IV. CNC1CCc2c1cn(S(=O)(=O)c1ccc(Cl)c(Cl)c1)c2-c1ccccc1F (stereo not shown)
Qu. Arrange the 4 entries by IC50 so the values rise. Give your ranking as a list of the labels in the requested order.
Ans. IV, I, II, III

###

Target: H+/K+-ATPase (Sus scrofa)
Construct: reaction buffer solution (60 mmol/l Tris-HCl buffer solution, pH 7.4) containing hog gastric vesicle
Assay: Inhibition of proton pump (H+/K+-ATPase) activity in hog gastric vesicles
Details: K+ specific H+/K+-ATPase activity, pH 7.4, 37° C. for 40 minutes, malachite green
pIC50: −log10 of the molar value.
Endpoint Label: pIC50

Some molecules with recorded pIC50:
molecule="CNC1CCc2c1cn(S(=O)(=O)c1cc(Cl)ccc1Cl)c2-c1ccc(C)cc1F (stereo not drawn) [Example 72]" target_under_test="H+/K+-ATPase (Sus scrofa)" reported_value=6.32
molecule="CNC1CCc2c1cn(S(=O)(=O)c1cccc(Cl)c1)c2-c1ccc2c(c1)OCO2 (stereo not drawn) [Example 28]" target_under_test="H+/K+-ATPase (Sus scrofa)" reported_value=6.23
molecule="CNC1CCc2c1cn(S(=O)(=O)c1cccc(OC(F)F)c1)c2-c1ccccc1F (stereo not drawn) [Example 57]" target_under_test="H+/K+-ATPase (Sus scrofa)" reported_value=6.38
molecule="CNC1CCc2c1cn(S(=O)(=O)c1ccc(C(F)(F)F)cc1Cl)c2-c1ccccc1F (stereo not drawn) [Example 69]" target_under_test="H+/K+-ATPase (Sus scrofa)" reported_value=5.79
molecule="CN(C)C1CCCc2c1cn(S(=O)(=O)c1cccc(OC(F)F)c1)c2-c1ccccc1F (stereo not drawn) [Example 142]" target_under_test="H+/K+-ATPase (Sus scrofa)" reported_value=5.10
molecule="CNC1CCc2c1cn(S(=O)(=O)c1cccc(OC)c1)c2-c1ccc(C)cc1F (stereo not drawn) [Example 54]" target_under_test="H+/K+-ATPase (Sus scrofa)" reported_value=6.39

P. CNC1CCc2c1cn(S(=O)(=O)c1cc(Cl)c(Cl)cc1Cl)c2-c1cc(Cl)ccc1Cl (stereo not drawn) [Example 83]
Q. CCNC1CCc2c1cn(S(=O)(=O)c1cccnc1)c2-c1ccccc1F (stereo not drawn) [Example 103]
R. CNC1CCCc2c1cn(S(=O)(=O)c1cccc(OC(F)(F)F)c1)c2-c1ccccc1F (stereo not drawn) [Example 125]
S. CNC1CCCc2c1cn(S(=O)(=O)c1cccc(Cl)c1)c2-c1ccncc1 (stereo not drawn) [Example 128]
Qu. # rank_down: sort by pIC50, max first Give your ranking as a list of the labels in the requested order.
Ans. P, Q, R, S
(P: 6.01, Q: 5.75, R: 5.35, S: 4.30)

P. CNC1CCc2c1cn(S(=O)(=O)c1cccc(Cl)c1)c2-c1cccnc1 (stereo not drawn) [Example 37]
Q. CNC1CCc2c1cn(S(=O)(=O)c1cc(Cl)ccc1Cl)c2-c1cc(Cl)ccc1Cl (stereo not drawn) [Example 73]
Qu. Hi, I'm comparing P with Q and wondering which one has the bigger number for pIC50. Any idea? // return label of chosen record
Ans. Q
(Q: 6.17, P: 5.83)

The measured values listed here are drawn from patent US10039747B2.
